For each record, write down the corresponding EC50.
biological target: Luciferin 4-monooxygenase (Photinus pyralis, UniProt P08659); assay: inhibition of purified Photinus pyralis luciferase – biochemical, luminescence, dose response (AID 1891)
Sequence (P08659 whole entry): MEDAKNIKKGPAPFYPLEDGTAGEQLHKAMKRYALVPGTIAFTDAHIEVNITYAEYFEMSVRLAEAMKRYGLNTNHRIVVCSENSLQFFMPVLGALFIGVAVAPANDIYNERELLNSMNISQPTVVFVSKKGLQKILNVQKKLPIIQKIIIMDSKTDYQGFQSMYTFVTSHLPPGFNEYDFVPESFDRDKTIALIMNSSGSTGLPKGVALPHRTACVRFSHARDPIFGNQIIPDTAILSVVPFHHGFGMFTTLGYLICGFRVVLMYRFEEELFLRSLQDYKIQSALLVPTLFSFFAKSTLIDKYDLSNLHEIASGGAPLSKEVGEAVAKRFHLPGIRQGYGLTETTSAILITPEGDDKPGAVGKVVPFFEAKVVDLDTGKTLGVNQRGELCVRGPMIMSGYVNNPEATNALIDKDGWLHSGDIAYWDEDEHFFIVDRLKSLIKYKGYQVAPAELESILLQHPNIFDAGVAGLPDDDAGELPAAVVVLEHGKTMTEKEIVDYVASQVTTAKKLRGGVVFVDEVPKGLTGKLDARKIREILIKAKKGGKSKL
The source made the active and inactive calls.

Field: example entries. Status: answers known.
O=C(/C=C/c1ccc(O)c(O)c1)c1ccccc1O has a reported EC50 of 0.437 µM (active)

The value of EC50 measured for the compound Cc1ccc2nc(-c3ccccc3)cn2c1 turned out to be 1.58 µM (active)

Recorded EC50 (compound CCOc1ccc(C2C(C(=O)NC)=C(C)Nc3nc4ccccc4n32)cc1OC (configuration not stated) ): > 112 µM (not active)

Consider O=C(N/N=C/c1cc2cc3c(cc2nc1Cl)OCO3)c1ccncc1 . Its measured EC50 is > 112 µM (not active)

Briefly, EC50 measured for O=S(=O)(c1ccc(F)cc1)N(Cc1ccco1)Cc1cc2ccccc2nc1O : > 112 µM (not active)

Hi there! I need EC50 for each item below, if you can.
1. Cc1ccc(-c2cnn(-c3ccccc3)c2N)cc1
2. O=C1/C(=C/c2ccc([N+](=O)[O-])cc2)CCc2ccccc21

1. 1.92 µM (active)
2. 0.404 µM (active)

---

molecular target: Fatty acid synthase (Homo sapiens, UniProt P49327); experiment: inhibition of human FAS-TE enzyme activity – biochemical, kinetic fluorescence intensity, dose response (AID 624326); assay type: functional;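 note: rate of fluorescence rise from hydrolysis of a fluorogenic O-methyl fluorescein ester substrate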
Sequence (P49327 whole entry): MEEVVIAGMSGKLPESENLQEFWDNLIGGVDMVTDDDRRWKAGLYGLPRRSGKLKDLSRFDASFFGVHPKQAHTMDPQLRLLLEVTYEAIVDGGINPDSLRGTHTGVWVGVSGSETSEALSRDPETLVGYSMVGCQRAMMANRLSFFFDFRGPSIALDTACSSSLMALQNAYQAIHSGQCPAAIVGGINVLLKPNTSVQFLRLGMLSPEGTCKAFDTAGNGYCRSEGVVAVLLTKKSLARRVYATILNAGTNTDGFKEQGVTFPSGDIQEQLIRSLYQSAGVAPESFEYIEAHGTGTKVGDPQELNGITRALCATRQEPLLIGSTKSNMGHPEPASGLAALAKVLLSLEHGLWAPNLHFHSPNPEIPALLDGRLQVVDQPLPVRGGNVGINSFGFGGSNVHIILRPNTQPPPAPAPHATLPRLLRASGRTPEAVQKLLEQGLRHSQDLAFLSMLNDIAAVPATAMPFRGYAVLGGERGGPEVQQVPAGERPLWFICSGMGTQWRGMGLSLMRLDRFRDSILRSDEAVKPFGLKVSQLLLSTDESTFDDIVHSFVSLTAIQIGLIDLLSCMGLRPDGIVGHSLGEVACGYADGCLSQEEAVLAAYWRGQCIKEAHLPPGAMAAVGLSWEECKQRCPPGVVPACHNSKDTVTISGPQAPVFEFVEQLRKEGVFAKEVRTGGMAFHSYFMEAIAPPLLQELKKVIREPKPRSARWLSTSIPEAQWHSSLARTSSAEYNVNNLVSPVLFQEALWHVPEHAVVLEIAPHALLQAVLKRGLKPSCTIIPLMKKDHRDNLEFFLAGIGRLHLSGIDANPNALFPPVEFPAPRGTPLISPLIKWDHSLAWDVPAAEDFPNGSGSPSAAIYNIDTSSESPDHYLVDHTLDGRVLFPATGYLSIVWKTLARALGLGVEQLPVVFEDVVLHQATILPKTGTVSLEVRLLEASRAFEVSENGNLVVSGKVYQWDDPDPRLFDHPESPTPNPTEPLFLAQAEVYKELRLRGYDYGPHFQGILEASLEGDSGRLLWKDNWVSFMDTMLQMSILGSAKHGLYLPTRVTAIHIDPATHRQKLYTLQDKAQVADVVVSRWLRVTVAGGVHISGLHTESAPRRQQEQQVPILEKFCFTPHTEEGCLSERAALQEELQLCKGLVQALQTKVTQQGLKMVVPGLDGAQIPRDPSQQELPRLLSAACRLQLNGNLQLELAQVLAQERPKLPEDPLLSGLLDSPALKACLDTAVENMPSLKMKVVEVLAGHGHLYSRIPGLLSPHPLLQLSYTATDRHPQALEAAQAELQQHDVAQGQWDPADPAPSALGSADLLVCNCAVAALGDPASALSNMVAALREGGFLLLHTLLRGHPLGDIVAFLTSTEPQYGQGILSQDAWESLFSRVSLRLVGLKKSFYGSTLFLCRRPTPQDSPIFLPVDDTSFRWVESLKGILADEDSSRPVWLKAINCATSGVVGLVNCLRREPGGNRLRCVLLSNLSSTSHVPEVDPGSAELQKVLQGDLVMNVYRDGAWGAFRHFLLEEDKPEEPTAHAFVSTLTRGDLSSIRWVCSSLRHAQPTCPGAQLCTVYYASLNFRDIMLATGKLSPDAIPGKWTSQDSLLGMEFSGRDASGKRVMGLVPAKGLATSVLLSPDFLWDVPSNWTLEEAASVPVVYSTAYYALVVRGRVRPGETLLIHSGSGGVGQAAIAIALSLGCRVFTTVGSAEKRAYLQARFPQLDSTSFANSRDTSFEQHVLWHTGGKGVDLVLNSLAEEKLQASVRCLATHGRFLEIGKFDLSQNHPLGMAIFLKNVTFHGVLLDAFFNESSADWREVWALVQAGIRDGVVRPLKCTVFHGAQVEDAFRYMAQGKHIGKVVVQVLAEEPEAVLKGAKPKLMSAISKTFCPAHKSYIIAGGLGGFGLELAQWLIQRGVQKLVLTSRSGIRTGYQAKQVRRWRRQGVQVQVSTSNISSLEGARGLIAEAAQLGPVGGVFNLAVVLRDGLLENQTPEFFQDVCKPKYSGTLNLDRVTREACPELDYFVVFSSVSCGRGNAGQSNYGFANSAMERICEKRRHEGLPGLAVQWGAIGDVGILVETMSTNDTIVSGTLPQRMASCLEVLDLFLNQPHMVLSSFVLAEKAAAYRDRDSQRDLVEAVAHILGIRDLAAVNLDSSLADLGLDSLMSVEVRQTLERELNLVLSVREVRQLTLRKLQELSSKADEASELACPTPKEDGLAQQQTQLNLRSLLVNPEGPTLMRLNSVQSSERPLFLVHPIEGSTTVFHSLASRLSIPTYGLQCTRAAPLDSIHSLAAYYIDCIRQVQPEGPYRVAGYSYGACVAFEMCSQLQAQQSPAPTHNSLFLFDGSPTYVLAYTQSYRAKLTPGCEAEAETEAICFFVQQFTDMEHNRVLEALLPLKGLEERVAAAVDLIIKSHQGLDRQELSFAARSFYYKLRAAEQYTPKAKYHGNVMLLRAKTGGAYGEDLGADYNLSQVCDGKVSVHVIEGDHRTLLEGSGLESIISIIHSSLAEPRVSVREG
Calls of active or inactive are those of the source.
measurement_name: IC50

Consider the reported IC50 for these compounds:
Lookup result for Nc1c(-c2cccc(Cl)c2)cnn1-c1cccc([N+](=O)[O-])c1 ; measured IC50: 12 µM (active)

Per the records, this compound ( COc1ccc(-c2nn(CCC#N)cc2C(=O)Nc2ccc(C(C)=O)cc2)cc1[N+](=O)[O-] ) has IC50 equal to 4.1 µM (active)

Attention now shifts to the item below.
The value of IC50 measured for the compound CN(CCOc1ccccc1)CC(=O)Nc1ccc([N+](=O)[O-])cc1Cl turned out to be 12.7 µM (active)

---

Biological target: UniProtKB Q9XUB2
Sequence (Q9XUB2 whole entry): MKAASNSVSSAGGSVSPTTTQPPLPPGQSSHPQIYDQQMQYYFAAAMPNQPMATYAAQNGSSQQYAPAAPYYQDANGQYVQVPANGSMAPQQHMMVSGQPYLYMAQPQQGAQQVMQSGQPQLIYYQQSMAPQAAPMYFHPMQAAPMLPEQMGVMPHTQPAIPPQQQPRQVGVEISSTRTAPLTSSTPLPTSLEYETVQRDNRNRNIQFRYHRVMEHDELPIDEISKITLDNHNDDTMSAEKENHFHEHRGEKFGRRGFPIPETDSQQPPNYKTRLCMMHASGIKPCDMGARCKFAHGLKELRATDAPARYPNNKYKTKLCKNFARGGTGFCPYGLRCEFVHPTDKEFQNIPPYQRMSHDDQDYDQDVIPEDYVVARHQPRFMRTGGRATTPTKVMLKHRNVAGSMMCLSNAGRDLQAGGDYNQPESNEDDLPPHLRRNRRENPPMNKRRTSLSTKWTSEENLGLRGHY
Test: potency of MEX-5 RNA-binding blockers – biochemical, C. elegans, fluorescence polarization, dose response (AID 1960)
Calls of active or inactive are those of the source.
Exercise: for every item that follows, state its recorded EC50.

Below, 3 compounds whose answers are already recorded.
Summary for this compound, NS(=O)(=O)c1ccc(NC(S)=NNC(=O)CCC(=O)Nc2ccccc2Cl)cc1 : EC50 is 12.2 µM (active)

The compound identified as Cc1ccc(NC(=O)/C(C#N)=C/c2ccc(C)s2)c(C)c1 registered its EC50 at 9.25 µM (active)

Measured EC50 of O=C(CCN1C(=O)/C(=C\C=C\c2ccccc2)SC1=S)Nc1ccc(C(=O)O)cc1 : 38.7 µM (active)

Next:
Form: compound = CC1=C(C#N)C(=O)NC(=O)/C1=C\c1ccc(-c2cc(C)c(C)cc2[N+](=O)[O-])o1 ; EC50 = > 300 µM (not active)
